- Tested on: rodent lifetime carcinogenesis bioassay, tumor incidence TD50
- assay explanation: carcinogenic potency in animals, long-term in vivo studies, CPDB compilation (AID 1745844)
- assay setup: dog; strain Beagle; females; in feed; site: mammary gland; lesion: adenocarcinoma; dosed 365 weeks; study length 365 weeks
Active and inactive are the calls of the source. How the calls were made is not given here.
attribute measured: TD50

Ask: Notebook: pull reported TD50 for rodent lifetime carcinogenesis bioassay, tumor incidence TD50, entry Cc1cc(C)c(S(=O)(=O)O)cc1N=Nc1cc(S(=O)(=O)O)c2ccccc2c1O
Reply: 316 mg/kg/day (inactive)

* * *

- System: rodent lifetime carcinogenesis bioassay, tumor incidence TD50
- assay explanation: carcinogenic potency in animals, long-term in vivo studies, CPDB compilation (AID 1745844)
- assay setup: rat; strain Charles River CD (Sprague-Dawley); females; in feed; site: mammary gland; lesion: carcinoma; dosed 97 weeks; study length 105 weeks
attribute measured: TD50

Ask: What value of TD50 has been reported for the following molecule? CCOCCc1c(-c2ccccc2)nc(N)n2ncnc12
Reply: 669 mg/kg/day
